Reported activity coefficient values for a set of molecules
- Test: activity coefficient (dimensionless); of the first substance listed, at infinite dilution; xn = mol fraction of the nth substance listed
- Details: 328.15 K; 101 kPa; Liquid; Chromatography; x1 = 0
Property: activity coefficient

>>> reading("C=CCCCCC [1-heptene] + CCn1cc[n+](C)c1.CS(=O)(=O)[O-]")
122
>>> reading("CC(C)OC(C)C [diisopropyl ether] + CCn1cc[n+](C)c1.CS(=O)(=O)[O-]")
68.7
>>> reading("C1CCCC1 [cyclopentane] + CCn1cc[n+](C)c1.CS(=O)(=O)[O-]")
39.5
>>> reading("CCCCCCC [heptane] + CCn1cc[n+](C)c1.CS(=O)(=O)[O-]")
273
>>> reading("CCC(C)(C)OC [2-methoxy-2-methylbutane] + CCn1cc[n+](C)c1.CS(=O)(=O)[O-]")
35.8
>>> reading("CCc1ccccc1 [ethylbenzene] + CCn1cc[n+](C)c1.CS(=O)(=O)[O-]")
17.1
>>> reading("CCC[N+](=O)[O-] [1-nitropropane] + CCn1cc[n+](C)c1.CS(=O)(=O)[O-]")
2.37
>>> reading("CCOCC [diethyl ether] + CCn1cc[n+](C)c1.CS(=O)(=O)[O-]")
17.5
